Test: AUC in C57BL6 mouse at 30 mg/kg, po qd via gavage after 24 hrs by LC-MS/MS analysis
Format: ADME, organism-based
Parameters: time < 24 hr, dose 30 mg/kg, route oral
Details: in vivo
Observable: AUC at 24 h (µM·h)
Write down the numeric answer in µM·h and omit the unit.

In [3]: df
Out[3]:
                                     smiles  endpoint_value
0  C[C@]1(C(=O)N2CC[C@@]3(S(=O)(=O)c4ccc(F)cc4)c4ccc(OCc5c(F)cccc5C(F)(F)F)cc4CC[C@@H]23)CC[C@H](C(=O)O)CC1             275

The compound O=C(O)[C@H]1CC[C@H](C(=O)N2CC[C@@]3(S(=O)(=O)c4ccc(F)cc4)c4ccc(OCc5c(F)cccc5C(F)(F)F)cc4CC[C@@H]23)CC1 showed AUC at 24 h equal to 103
